These measurements were taken from ChEMBL document CHEMBL4043283.

target.under.test: Voltage-gated inwardly rectifying potassium channel KCNH2 (Homo sapiens, UniProt Q12809)
Sequence (Q12809 whole entry): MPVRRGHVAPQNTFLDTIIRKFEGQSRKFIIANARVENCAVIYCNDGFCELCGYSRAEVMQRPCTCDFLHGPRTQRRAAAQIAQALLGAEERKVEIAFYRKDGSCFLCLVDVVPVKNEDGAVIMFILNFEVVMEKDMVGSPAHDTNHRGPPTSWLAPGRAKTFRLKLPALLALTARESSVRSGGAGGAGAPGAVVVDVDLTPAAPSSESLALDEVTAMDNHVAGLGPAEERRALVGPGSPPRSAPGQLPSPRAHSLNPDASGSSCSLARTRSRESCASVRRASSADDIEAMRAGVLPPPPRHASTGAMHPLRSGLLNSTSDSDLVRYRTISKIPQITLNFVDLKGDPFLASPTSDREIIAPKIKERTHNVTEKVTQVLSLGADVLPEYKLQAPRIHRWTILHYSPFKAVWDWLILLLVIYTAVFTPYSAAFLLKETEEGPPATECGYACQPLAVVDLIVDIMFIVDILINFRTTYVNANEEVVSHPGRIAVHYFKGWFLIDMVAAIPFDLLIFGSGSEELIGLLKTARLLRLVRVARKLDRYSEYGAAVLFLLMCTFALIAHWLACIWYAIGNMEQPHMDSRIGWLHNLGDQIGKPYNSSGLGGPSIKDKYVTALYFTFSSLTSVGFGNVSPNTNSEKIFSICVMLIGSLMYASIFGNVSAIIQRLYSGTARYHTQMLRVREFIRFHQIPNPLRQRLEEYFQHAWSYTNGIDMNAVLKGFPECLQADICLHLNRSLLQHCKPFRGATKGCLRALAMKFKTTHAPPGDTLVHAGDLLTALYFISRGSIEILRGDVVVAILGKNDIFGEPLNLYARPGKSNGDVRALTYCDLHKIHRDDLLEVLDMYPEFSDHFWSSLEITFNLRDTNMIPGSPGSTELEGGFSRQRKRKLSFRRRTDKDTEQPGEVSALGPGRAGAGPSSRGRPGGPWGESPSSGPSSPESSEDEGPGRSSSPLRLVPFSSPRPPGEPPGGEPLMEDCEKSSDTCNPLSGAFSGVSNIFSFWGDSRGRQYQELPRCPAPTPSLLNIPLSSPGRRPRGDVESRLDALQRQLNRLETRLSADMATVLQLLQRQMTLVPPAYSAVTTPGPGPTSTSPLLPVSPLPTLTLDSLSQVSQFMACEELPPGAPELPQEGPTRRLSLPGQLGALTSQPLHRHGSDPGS
experimental.protocol: Inhibition of [3H]-astemizole binding to human ERG expressed in HEK293 cell membranes by scintillation counting method
pIC50: −log10 of the molar value.
outcome.measure: pIC50

Problem: What value of pIC50 has been reported for the following molecule? "CN1CC[C@H](c2c(O)cc(O)c3c(=O)cc(/C=C/c4c(Cl)cccc4Cl)oc23)[C@H](O)C1"
Solution: < 4.30

###

Measured inhibition, listed per entry for reference.
target.under.test: CDK9/cyclin T1 (Homo sapiens) (UniProt O60563+P50750)
experimental.protocol: Inhibition of CDK9/cyclin T1 (unknown origin) at 0.5 uM using YSPTSPSYSPTSPSYSPTSPKKK as substrate after 30 mins in presence of [33P]-gamma-ATP by filter binding assay relative to control
Format: protein-complex assay

Study these solved cases before continuing.
{"molecule": "Cc1cc(=O)c2c(O)cc(OCc3ccco3)c([C@H]3CCN(C)C[C@H]3O)c2o1", "outcome.measure": "inhibition", "endpoint.result": "8%"}
{"molecule": "COc1ccc(C(O)c2c(C)oc3c([C@H]4CCN(C)C[C@H]4O)c(O)cc(O)c3c2=O)cc1Br (some centres undefined)", "outcome.measure": "inhibition", "endpoint.result": "0%"}
{"molecule": "CN1CC[C@H](c2c(O)cc(O)c3c(=O)cc(/C=C/c4ccccc4)oc23)[C@H](O)C1", "outcome.measure": "inhibition", "endpoint.result": "66%"}

Here's the next entry for you.
Problem: What value of inhibition has been reported for the following molecule? "COc1ccc(COc2cc(O)c3c(=O)cc(C)oc3c2[C@H]2CCN(C)C[C@H]2O)cc1"
Solution: 0%

###

experimental.protocol: Chemical stability of compound in phosphate buffered saline at pH 6.8 assessed as parent compound remaining at 120 ug/ml after 24 hrs by HPLC method
Format: physicochemical
cond: read-out: Stability
outcome.measure: remaining at 24 h, 120 ug/ml (%)
# number only, unit % dropped from output

Problem: What value of remaining at 24 h, 120 ug/ml has been reported for the following compound? "CN1CC[C@H](c2c(O)cc(O)c3c(=O)cc(/C=C/c4c(Cl)cccc4Cl)oc23)[C@H](O)C1"
Solution: 81

###

experimental.protocol: Intrinsic clearance in monkey liver S9 fraction assessed per mg of protein preincubated for 5 mins followed by NADPH addition measured after 30 mins by LC-MS/MS analysis
Assay type: ADME, tissue-based, Macaca mulatta
cond: rhesus monkey, s9, 0.5 h
outcome.measure: CLint

Problem: What value of CLint has been reported for the following compound? "CN1CC[C@H](c2c(O)cc(O)c3c(=O)cc(/C=C/c4c(Cl)cccc4Cl)oc23)[C@H](O)C1"
Solution: 25 µL/min/mg

###

target.under.test: serum albumin (Homo sapiens, UniProt P02768)
Sequence (P02768 whole entry): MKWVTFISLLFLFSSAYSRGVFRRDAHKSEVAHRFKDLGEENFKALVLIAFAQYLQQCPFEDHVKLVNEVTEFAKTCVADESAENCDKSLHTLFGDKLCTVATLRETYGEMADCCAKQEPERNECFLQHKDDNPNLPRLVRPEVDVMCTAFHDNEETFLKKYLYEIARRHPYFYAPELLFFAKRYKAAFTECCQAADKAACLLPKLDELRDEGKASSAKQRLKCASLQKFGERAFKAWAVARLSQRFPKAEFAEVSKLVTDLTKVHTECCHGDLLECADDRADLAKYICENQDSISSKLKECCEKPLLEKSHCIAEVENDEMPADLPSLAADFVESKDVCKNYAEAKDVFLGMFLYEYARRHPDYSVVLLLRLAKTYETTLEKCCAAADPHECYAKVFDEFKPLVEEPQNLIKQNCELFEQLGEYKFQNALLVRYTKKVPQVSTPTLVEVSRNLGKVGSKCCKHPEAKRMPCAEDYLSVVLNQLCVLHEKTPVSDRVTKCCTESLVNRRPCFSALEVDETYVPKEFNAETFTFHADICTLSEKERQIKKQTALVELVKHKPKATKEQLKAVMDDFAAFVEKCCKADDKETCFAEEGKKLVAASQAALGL
experimental.protocol: Binding affinity to human serum albumin
Assay type: ADME
cond: read-out: PB (converted)
outcome.measure: fraction unbound
Lab note: record the figure alone, no unit after it.

Problem: What value of fraction unbound has been reported for the following compound? "CN1CC[C@H](c2c(O)cc(O)c3c(=O)cc(/C=C/c4c(Cl)cccc4Cl)oc23)[C@H](O)C1"
Solution: 0.033

###

experimental.protocol: AUC in Sprague-Dawley rat at 3 mg/kg, po by LC-MS/MS analysis
Assay type: ADME, organism-based
cond: in vivo
outcome.measure: AUC (µM·h)
# number only, unit µM·h dropped from output

Problem: What value of AUC has been reported for the following molecule? "CN1CC[C@H](c2c(O)cc(O)c3c(=O)cc(/C=C/c4c(Cl)cccc4Cl)oc23)[C@H](O)C1"
Solution: 1.44

###

Measured Ratio IC50, listed per entry for reference.
Organism: Homo sapiens
experimental.protocol: Selectivity ratio of IC50 for CDK2/cyclin A (unknown origin) to IC50 for CDK9/cyclin T1 (unknown origin)
Lab note: record the figure alone, no unit after it.

Study these solved cases before continuing.
{"chemical.smiles": "CN1CC[C@H](c2c(O)cc(O)c3c(=O)cc(/C=C/c4ccccc4Cl)oc23)[C@H](O)C1", "outcome.measure": "Ratio IC50", "endpoint.result": 10}
{"chemical.smiles": "CN1CC[C@H](c2c(O)cc(O)c3c(=O)cc(/C=C/c4ccc(Cl)cc4)oc23)[C@H](O)C1", "outcome.measure": "Ratio IC50", "endpoint.result": 10}
{"chemical.smiles": "CN1CC[C@H](c2c(O)cc(O)c3c(=O)cc(/C=C/c4cccc(Cl)c4)oc23)[C@H](O)C1", "outcome.measure": "Ratio IC50", "endpoint.result": 10}
{"chemical.smiles": "CN1CC[C@H](c2c(O)cc(O)c3c(=O)cc(/C=C/c4c(F)c(F)c(F)c(F)c4F)oc23)[C@H](O)C1", "outcome.measure": "Ratio IC50", "endpoint.result": 52}

Problem: What value of Ratio IC50 has been reported for the following compound? "CN1CC[C@H](c2c(O)cc(O)c3c(=O)cc(/C=C/c4c(Cl)cccc4Cl)oc23)[C@H](O)C1"
Solution: 7

###

experimental.protocol: Half life in dog liver S9 fraction preincubated for 5 mins followed by NADPH addition measured after 30 mins by LC-MS/MS analysis
Type: ADME, tissue-based, Canis lupus familiaris
outcome.measure: half-life (h)
# number only, unit h dropped from output

Problem: What value of half-life has been reported for the following compound? "CN1CC[C@H](c2c(O)cc(O)c3c(=O)cc(/C=C/c4c(Cl)cccc4Cl)oc23)[C@H](O)C1"
Solution: 1.95

###

experimental.protocol: Growth inhibition of human HEK293 cells after 48 hrs by MTT assay
Assay type: cell-based
outcome.measure: GI50 at 48 h (µM)
# number only, unit µM dropped from output

Problem: What value of GI50 at 48 h has been reported for the following compound? "CN1CC[C@H](c2c(O)cc(O)c3c(=O)cc(/C=C/c4c(Cl)cccc4Cl)oc23)[C@H](O)C1"
Solution: 22

###

target.under.test: Cytochrome P450 3A4 (Homo sapiens, UniProt P08684)
Sequence (P08684 whole entry): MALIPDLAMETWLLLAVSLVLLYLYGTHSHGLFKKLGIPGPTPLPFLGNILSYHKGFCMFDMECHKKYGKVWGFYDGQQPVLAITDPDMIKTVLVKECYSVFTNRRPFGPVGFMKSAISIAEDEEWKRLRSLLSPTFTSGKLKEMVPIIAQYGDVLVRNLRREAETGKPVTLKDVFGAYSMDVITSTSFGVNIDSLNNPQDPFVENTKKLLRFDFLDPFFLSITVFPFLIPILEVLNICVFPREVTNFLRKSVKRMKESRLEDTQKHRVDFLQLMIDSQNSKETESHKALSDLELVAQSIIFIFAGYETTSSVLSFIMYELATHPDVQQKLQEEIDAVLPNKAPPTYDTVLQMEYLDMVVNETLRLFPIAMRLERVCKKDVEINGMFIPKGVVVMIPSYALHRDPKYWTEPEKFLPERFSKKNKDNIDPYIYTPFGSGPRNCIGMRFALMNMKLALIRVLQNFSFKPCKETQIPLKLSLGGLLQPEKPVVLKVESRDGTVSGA
outcome.measure: IC50

Problem: # value lookup — system Cytochrome P450 3A4 (Homo sapiens, UniProt P08684), readout IC50, item "CN1CC[C@H](c2c(O)cc(O)c3c(=O)cc(/C=C/c4c(Cl)cccc4Cl)oc23)[C@H](O)C1"
Solution: > 20 µM

###

target.under.test: CDK3/Cyclin E (Homo sapiens)
Sequence (P24864 whole entry): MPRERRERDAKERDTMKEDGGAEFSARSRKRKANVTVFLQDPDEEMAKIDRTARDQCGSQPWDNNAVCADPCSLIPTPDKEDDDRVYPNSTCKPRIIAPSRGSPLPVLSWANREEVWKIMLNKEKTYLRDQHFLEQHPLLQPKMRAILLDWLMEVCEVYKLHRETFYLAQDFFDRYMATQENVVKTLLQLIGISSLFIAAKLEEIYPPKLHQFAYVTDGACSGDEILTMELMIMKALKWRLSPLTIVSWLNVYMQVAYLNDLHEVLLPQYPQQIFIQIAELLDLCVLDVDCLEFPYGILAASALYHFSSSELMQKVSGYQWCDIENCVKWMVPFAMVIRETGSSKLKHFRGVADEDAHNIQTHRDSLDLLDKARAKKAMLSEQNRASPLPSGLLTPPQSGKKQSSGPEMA
Sequence (Q00526 whole entry): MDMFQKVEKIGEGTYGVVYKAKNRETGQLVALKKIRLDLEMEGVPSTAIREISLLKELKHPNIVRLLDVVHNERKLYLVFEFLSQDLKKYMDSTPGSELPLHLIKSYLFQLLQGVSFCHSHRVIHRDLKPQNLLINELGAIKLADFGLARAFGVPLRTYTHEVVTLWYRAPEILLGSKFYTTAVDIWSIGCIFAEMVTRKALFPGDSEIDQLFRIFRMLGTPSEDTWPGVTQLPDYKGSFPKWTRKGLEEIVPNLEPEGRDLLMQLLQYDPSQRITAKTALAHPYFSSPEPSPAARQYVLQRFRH
experimental.protocol: Inhibition of CDK3/cyclin E (unknown origin) after 30 mins in presence of [33P]-gamma-ATP by filter binding assay
pIC50: −log10 of the molar value.
outcome.measure: pIC50

Problem: What value of pIC50 has been reported for the following molecule? "CN1CC[C@H](c2c(O)cc(O)c3c(=O)cc(/C=C/c4c(Cl)cccc4Cl)oc23)[C@H](O)C1"
Solution: < 6.00

###

experimental.protocol: Chemical stability of compound in phosphate buffer at pH 4 assessed as parent compound remaining at 120 ug/ml after 24 hrs by HPLC method
Format: physicochemical
cond: read-out: Stability
outcome.measure: remaining at 24 h, 120 ug/ml (%)
# number only, unit % dropped from output

Problem: What value of remaining at 24 h, 120 ug/ml has been reported for the following molecule? "CN1CC[C@H](c2c(O)cc(O)c3c(=O)cc(/C=C/c4c(Cl)cccc4Cl)oc23)[C@H](O)C1"
Solution: 100

###

experimental.protocol: Elimination half life in BALB/c mouse at 10 mg/kg, po by LC-MS/MS analysis
Type: ADME, organism-based
cond: in vivo, read-out: beta t1/2 (converted)
outcome.measure: half-life
Quote the value and follow it with the unit of measurement.

Problem: What value of half-life has been reported for the following compound? "CN1CC[C@H](c2c(O)cc(O)c3c(=O)cc(/C=C/c4c(Cl)cccc4Cl)oc23)[C@H](O)C1"
Solution: 279 min

###

System: PC-3
experimental.protocol: Growth inhibition of human PC3 cells after 48 hrs by MTT assay
Format: functional
cond: PC-3, 48 h
outcome.measure: GI50 (µM)
# number only, unit µM dropped from output

Study these solved cases before continuing.
{"chemical.smiles": "CN1CC[C@H](c2c(O)cc(O)c3c(=O)cc(/C=C/c4ccc(Cl)cc4)oc23)[C@H](O)C1", "GI50 [µM]": 31}
{"chemical.smiles": "Cc1cc(=O)c2c(O)cc(O)c([C@H]3CCN(C)C[C@H]3O)c2o1", "GI50 [µM]": 19}
{"chemical.smiles": "CN1CC[C@H](c2c(O)cc(O)c3c(=O)cc(/C=C/c4cccc(Cl)c4)oc23)[C@H](O)C1", "GI50 [µM]": 10}
{"chemical.smiles": "CN1CC[C@H](c2c(O)cc(O)c3c(=O)cc(/C=C/c4cccc(F)c4)oc23)[C@H](O)C1", "GI50 [µM]": 7}
{"chemical.smiles": "CN1CC[C@H](c2c(O)cc(O)c3c(=O)cc(/C=C/c4ccccc4F)oc23)[C@H](O)C1", "GI50 [µM]": 20}
{"chemical.smiles": "CN1CC[C@H](c2c(O)cc(O)c3c(=O)cc(/C=C/c4ccccc4)oc23)[C@H](O)C1", "GI50 [µM]": 58}
{"chemical.smiles": "CN1CC[C@H](c2c(O)cc(O)c3c(=O)cc(/C=C/c4ccccc4Cl)oc23)[C@H](O)C1", "GI50 [µM]": 17}

Here's the next entry for you.
Problem: What value of GI50 has been reported for the following compound? "CN1CC[C@H](c2c(O)cc(O)c3c(=O)cc(/C=C/c4c(F)c(F)c(F)c(F)c4F)oc23)[C@H](O)C1"
Solution: 2
